# ASSAY_SYSTEM: CD28 (human) (UniProt P10747)
# ASSAY_PROCEDURE: flow cytometry, transfected cells
MEASURE: MFI ratio to WT (ΔWT) (fold)
Give just the numeric value; fold need not be written.

ICOSL-Fc N52S/N57Y/Q100M (Fc fusion) DTQEKEVRAMVGSDVELSCACPEGSRFDLNDVYVYWQTSESKTVVTYHIPQSSSLEYVDSRYRNRALMSPAGMLRGDFSLRLFNVTPQDEQKFHCLVLSMSLGFQEVLSVEVTLHVAANFSVPVVSAPHSPSQDELTFTCTSINGYPRPNVYWINKTDNSLLDQALQNDTVFLNMRGLYDVVSVLRIARTPSVNIGCCIENVLLQQNLTVGSQTGNDIGERDKITENPVSTGEKNAAT
7

Fill in the blank: the reported MFI ratio to WT (ΔWT) of ICOSL-Fc N52G/N57V/Q100G (Fc fusion) DTQEKEVRAMVGSDVELSCACPEGSRFDLNDVYVYWQTSESKTVVTYHIPQGSSLEVVDSRYRNRALMSPAGMLRGDFSLRLFNVTPQDEQKFHCLVLSGSLGFQEVLSVEVTLHVAANFSVPVVSAPHSPSQDELTFTCTSINGYPRPNVYWINKTDNSLLDQALQNDTVFLNMRGLYDVVSVLRIARTPSVNIGCCIENVLLQQNLTVGSQTGNDIGERDKITENPVSTGEKNAAT is ____.
1.1

Fill in: MFI ratio to WT (ΔWT) of ICOSL-Fc N52R/N57L/Q100S (Fc fusion) DTQEKEVRAMVGSDVELSCACPEGSRFDLNDVYVYWQTSESKTVVTYHIPQRSSLELVDSRYRNRALMSPAGMLRGDFSLRLFNVTPQDEQKFHCLVLSSSLGFQEVLSVEVTLHVAANFSVPVVSAPHSPSQDELTFTCTSINGYPRPNVYWINKTDNSLLDQALQNDTVFLNMRGLYDVVSVLRIARTPSVNIGCCIENVLLQQNLTVGSQTGNDIGERDKITENPVSTGEKNAAT is ___
5

Returns the measured MFI ratio to WT (ΔWT) for the input binder. Input: ICOSL-Fc N52T/N57H/Q100S (Fc fusion) DTQEKEVRAMVGSDVELSCACPEGSRFDLNDVYVYWQTSESKTVVTYHIPQTSSLEHVDSRYRNRALMSPAGMLRGDFSLRLFNVTPQDEQKFHCLVLSSSLGFQEVLSVEVTLHVAANFSVPVVSAPHSPSQDELTFTCTSINGYPRPNVYWINKTDNSLLDQALQNDTVFLNMRGLYDVVSVLRIARTPSVNIGCCIENVLLQQNLTVGSQTGNDIGERDKITENPVSTGEKNAAT
6.4

Requested read-out: MFI ratio to WT (ΔWT). Entry: ICOSL-Fc N52A/N57F/Q100S (Fc fusion) DTQEKEVRAMVGSDVELSCACPEGSRFDLNDVYVYWQTSESKTVVTYHIPQASSLEFVDSRYRNRALMSPAGMLRGDFSLRLFNVTPQDEQKFHCLVLSSSLGFQEVLSVEVTLHVAANFSVPVVSAPHSPSQDELTFTCTSINGYPRPNVYWINKTDNSLLDQALQNDTVFLNMRGLYDVVSVLRIARTPSVNIGCCIENVLLQQNLTVGSQTGNDIGERDKITENPVSTGEKNAAT
7

Where these numbers come from: patent US20250163127A1
